- target_entity: thrombin (endogenous, clotting assay in plasma or whole blood) (Homo sapiens, UniProt P00734;P00734 P00734:328-363,P00734:364-622)
- procedure_summary: inhibition; PT at 10 uM

{"binder": "TCCCGAGCGATACTGTCTAGGTTGGGTAGGGTGGTGGCTGAGGATCGATC (ssDNA) [AMX(453)_F7]", "activity": "28.6 s"}
{"binder": "TCCTGATTGATCTGAGGGGTATTGTTGGCGTGGGTGGCTGAGGATCGATC (ssDNA) [AMX(453)_C10]", "activity": "104 s"}
{"binder": "TCCCTGGTTTCGATCTGTTTTGGTTGGTCTGGGTGGCTGAGGATCGATC (ssDNA) [AMX(454)_B12]", "activity": "21.9 s"}
